- System: HDQ-P1
- Method description: normalised response (% of control), CellTiter-Glo; higher = more viable cells (100 = DMSO, 0 = benzethonium chloride kill control)
- Condition set: incubation time: 72 h
So basically: normalised response at 70% or higher? That is YES. Lower than 70%? That is NO.

Q. Could you tell me if the measured normalised response of COc1cccc2c1C(=O)c1c(O)c3c(c(O)c1C2=O)C[C@@](O)(C(C)=O)C[C@@H]3O[C@H]1C[C@H](N)[C@H](O)[C@H](C)O1 [Daunorubicin] (1000 nM) reaches 70% or more?
A. NO

Q. Could you tell me if the measured normalised response of C#Cc1cccc(Nc2ncnc3cc(OC)c(OCCCCCCC(=O)NO)cc23)c1 [CUDC-101] (10000 nM) reaches 70% or more?
A. NO

Q. Could you tell me if the measured normalised response of O=C(c1ccc(OCCN2CCCCC2)cc1)c1c(-c2ccc(O)cc2)sc2cc(O)ccc12 [Raloxifene] (10000 nM) reaches 70% or more?
A. YES

Q. Could you tell me if the measured normalised response of CN(c1ccccc1CNc1nc(Nc2ccc3c(c2)CC(=O)N3)ncc1C(F)(F)F)S(C)(=O)=O (10000 nM) reaches 70% or more?
A. NO
